- Experiment: Pharmacokinetics in humans, MRTX1133 formulation, oral, single and multiple doses
- Format: in vivo
- Particulars: human, plasma, po, 200 mg, multiple oral doses of 200 mg BID, fasted; median of subjects (footnote b); read-out: Tmax, Median

| Smi | Tmax |
| --- | --- |
| C#Cc1c(F)ccc2cc(O)cc(-c3ncc4c(N5C[C@H]6CC[C@@H](C5)N6)nc(OC[C@@]56CCCN5C[C@H](F)C6)nc4c3F)c12 | 1.5 h |

====

- Experiment: Pharmacokinetics in humans, MRTX1133 formulation, oral, single and multiple doses
- Assay type: in vivo
- Particulars: human, plasma, po, 200 mg, multiple oral doses of 200 mg BID, fasted; 6 h; mean of subjects; read-out: Plasma concentration, Mean
Measured attribute: concentration at 6 h (ng/mL)

| Smi | Measured attribute | Reported measurement |
| --- | --- | --- |
| C#Cc1c(F)ccc2cc(O)cc(-c3ncc4c(N5C[C@H]6CC[C@@H](C5)N6)nc(OC[C@@]56CCCN5C[C@H](F)C6)nc4c3F)c12 | concentration at 6 h | 3.85 |

The reported measurements were obtained from patent US20250120981A1.
